Tested on: Pancreatin
TEST_METHOD_NOTES: Protease stability in simulated intestinal fluid (Pancreatin-SIF, FaSSIF)
Assay type: in vitro ADME
CONDITION_INFO: 240 min, 1 μM peptide, 37° C., read-out: FaSSIF 240 (min), remaining percent of peptide
Starred links: 1 amine or outer side, 2 acyl side, 3 side chain; linkers in the order of their positions; H or OH if unused. Positions of bridges follow the written chain, without caps; N, C: chain ends. Non-standard residues stand in square brackets, D forms with d. Residues, ends and D or L forms follow the SMILES beside them. *: point of attachment. X6 = O=C(CCC(=O)[*:3])N[C@@H](CS[*:2])C(=O)[*:1]; Trp(7-Me) = Cc1cccc2c(C[C@H](N)C(=O)O)c[nH]c12; 2Nal = N[C@@H](Cc1ccc2ccccc2c1)C(=O)O; AEF = NCCOc1ccc(C[C@H](N)C(=O)O)cc1; 3Pal = N[C@@H](Cc1cccnc1)C(=O)O; Lys(Me) = CNCCCC[C@H](N)C(=O)O; αMeL = CC(C)C[C@](C)(N)C(=O)O; Thp = NC1(C(=O)O)CCOCC1; Me2NCH2CH2 = CN(C)CC*; Aib = CC(C)(N)C(=O)O; Ahx = NCCCCCC(=O)O; Ava = NCCCCC(=O)O; Sar = CNCC(=O)O
Let's look at some compounds and their measured remaining at 4 h, 1 µM.
READOUT_KIND: remaining at 4 h, 1 µM (%)

compound="CC(=O)NCCCC[C@@H]1NC(=O)[C@H](Cc2c[nH]c3c(C)cccc23)NC(=O)[C@@H](NC(C)=O)CCCCNC(=O)[C@@H]2CSSC[C@H](NC1=O)C(=O)N[C@@H](Cc1ccc(OCCN(C)C)cc1)C(=O)N[C@@H](Cc1ccc3ccccc3c1)C(=O)NC(C)(C)C(=O)N[C@H](C(=O)N[C@@H](CC(N)=O)C(=O)N[C@@H](Cc1cccnc1)C(=O)N(C)CC(N)=O)CCCCNC(=O)CCC(=O)N2 [compound 104] (Ac-K[Trp(7-Me)]K(Ac)CY(Me2NCH2CH2)[2Nal][Aib]KN[3Pal][Sar]-NH2; linker 1-4-8 via X6)" readout_kind="remaining at 4 h, 1 µM" unit_of_measure=% readout_value=76
compound="C[C@H](NC(=O)[C@@H]1CC(=O)NCCCCCC(=O)N[C@H]2CSSC[C@H](NC(=O)[C@H](CCC(N)=O)NC(=O)[C@H](Cc3c[nH]c4ccccc34)NC(=O)CCCCNC2=O)C(=O)N[C@@H](Cc2ccc(OCCN)cc2)C(=O)N[C@@H](Cc2ccc3ccccc3c2)C(=O)NC(C)(C)C(=O)N1)C(=O)NCC(N)=O [compound 53] ([Ahx]C[Ava]WQC[AEF][2Nal][Aib]DAG-NH2; disulfide 2-6; lactam N-10)" readout_kind="remaining at 4 h, 1 µM" unit_of_measure=% readout_value=75
compound="CC(=O)N[C@H]1CCCCNC(=O)[C@@H]2CSSC[C@H](NC(=O)[C@H](CC(C)C)NC(=O)[C@H](Cc3c[nH]c4c(C)cccc34)NC1=O)C(=O)N[C@@H](Cc1ccc(OCCN(C)C)cc1)C(=O)N[C@@H](Cc1ccc3ccccc3c1)C(=O)N[C@@](C)(CC(C)C)C(=O)N[C@H](C(=O)N[C@@H](CC(N)=O)C(=O)N[C@@H](Cc1cccnc1)C(=O)N(C)CC(N)=O)CCCCN(C)C(=O)CCC(=O)N2 [compound 68] (Ac-K[Trp(7-Me)]LCY(Me2NCH2CH2)[2Nal][αMeL][Lys(Me)]N[3Pal][Sar]-NH2; linker 1-4-8 via X6)" readout_kind="remaining at 4 h, 1 µM" unit_of_measure=% readout_value=86
compound="C[C@@H](O)[C@@H]1NC(=O)[C@H](CC(N)=O)NC(=O)[C@@H]2CSSC[C@H](NC(=O)[C@H](CCC(N)=O)NC(=O)[C@H](Cc3c[nH]c4ccccc34)NC1=O)C(=O)N[C@@H](Cc1ccc(OCCN(C)C)cc1)C(=O)N[C@@H](Cc1ccc3ccccc3c1)C(=O)NC1(CCOCC1)C(=O)N[C@H](C(=O)N[C@@H](CC(N)=O)C(=O)N[C@@H](CC(N)=O)C(N)=O)CCC(=O)NCCCCC(=O)N2 [compound 26] ([Ava]CNTWQCY(Me2NCH2CH2)[2Nal][Thp]ENN-NH2; disulfide 2-7; lactam N-11)" readout_kind="remaining at 4 h, 1 µM" unit_of_measure=% readout_value=94
